The measurements presented in this section are drawn from patent US20200361895A1.

For each of the compounds below, state its pIC50.
target: UniProt:Q96P20; test: THP-1 cells pyroptosis assay (LPS + nigericin, resazurin readout; THP IC50); type: cell-based; design: Seed THP-1 cells (25,000 cells/well) containing 1.0 μg/ml LPS in 40 μl of RPMI medium; host or cells: THP-1 cells
Sequence (Q96P20 whole entry): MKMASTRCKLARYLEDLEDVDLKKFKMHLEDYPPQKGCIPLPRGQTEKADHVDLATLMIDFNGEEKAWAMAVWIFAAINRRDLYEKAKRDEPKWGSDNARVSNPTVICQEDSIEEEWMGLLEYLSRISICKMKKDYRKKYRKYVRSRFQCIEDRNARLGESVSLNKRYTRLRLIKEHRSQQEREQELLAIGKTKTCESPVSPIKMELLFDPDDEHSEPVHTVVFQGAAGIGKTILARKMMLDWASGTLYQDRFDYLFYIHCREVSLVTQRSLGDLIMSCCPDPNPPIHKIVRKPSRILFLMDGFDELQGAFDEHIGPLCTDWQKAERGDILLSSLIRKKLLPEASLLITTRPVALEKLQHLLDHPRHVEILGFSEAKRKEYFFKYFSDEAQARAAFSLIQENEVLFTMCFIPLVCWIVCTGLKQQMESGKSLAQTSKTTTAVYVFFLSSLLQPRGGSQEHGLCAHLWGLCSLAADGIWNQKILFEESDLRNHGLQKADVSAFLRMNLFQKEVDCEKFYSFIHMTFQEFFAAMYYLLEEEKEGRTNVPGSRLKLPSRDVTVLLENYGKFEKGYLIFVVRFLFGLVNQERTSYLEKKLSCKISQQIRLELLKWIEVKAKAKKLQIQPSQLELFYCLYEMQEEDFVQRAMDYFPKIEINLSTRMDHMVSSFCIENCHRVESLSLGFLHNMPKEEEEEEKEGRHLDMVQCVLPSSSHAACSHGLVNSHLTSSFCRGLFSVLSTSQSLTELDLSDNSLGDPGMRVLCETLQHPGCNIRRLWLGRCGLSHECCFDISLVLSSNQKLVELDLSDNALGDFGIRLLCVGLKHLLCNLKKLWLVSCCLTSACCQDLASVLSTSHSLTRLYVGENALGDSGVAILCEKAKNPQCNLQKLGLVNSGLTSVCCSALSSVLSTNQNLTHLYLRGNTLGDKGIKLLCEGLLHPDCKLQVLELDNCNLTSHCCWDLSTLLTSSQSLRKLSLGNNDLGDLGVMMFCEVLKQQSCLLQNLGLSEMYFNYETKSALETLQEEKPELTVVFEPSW
pIC50: −log10 of the molar value. Structures can show the parent of a compound that is named as a salt.

Entry COCc1cc(-c2ccc3c(c2NC(=O)NS(=O)(=O)c2ccn(C(C)C)n2)CCC3)ccn1 [Example 296, sodium salt] under UniProt:Q96P20 had pIC50 of ≥ 6.30

Entry CC(C)Oc1cc(-c2cc(F)cc(C(C)C)c2NC(=O)NS(=O)(=O)c2ccn(C(C)C)n2)ccn1 under UniProt:Q96P20 had pIC50 of ≥ 6.30

Entry COc1cc(-c2ccc3c(c2NC(=O)NS(=O)(=O)c2ccc(C(C)C)c(CN(C)C)c2)CCC3)ccn1 [Example 282, sodium salt] under UniProt:Q96P20 had pIC50 of ≥ 6.30

Entry COc1cc(-c2ccc3c(c2NC(=O)NS(=O)(=O)c2ccn(C(C)(C)CN4CC(F)C4)n2)CCO3)ccn1 under UniProt:Q96P20 had pIC50 of ≥ 6.30

Entry COc1cc(-c2ccc3c(c2NC(=O)NS(=O)(=O)c2ccn(C4CC4)n2)CCC3)ccn1 [Example 221, sodium salt] under UniProt:Q96P20 had pIC50 of ≥ 6.30

Entry Cc1cc(-c2ccc3c(c2NC(=O)NS(=O)(=O)c2ccn(C4CC4)n2)CCC3)ccn1 [Example 270, sodium salt] under UniProt:Q96P20 had pIC50 of ≥ 6.30

Entry COc1cc(-c2ccc3c(c2NC(=O)NS(=O)(=O)c2ccc(C(=O)N(C)C)cc2)CCO3)ccn1 [Example 309, sodium salt] under UniProt:Q96P20 had pIC50 of ≥ 5.30
